tested target: Mitogen-activated protein kinase 14 (Homo sapiens, UniProt Q16539)
Sequence (Q16539 whole entry): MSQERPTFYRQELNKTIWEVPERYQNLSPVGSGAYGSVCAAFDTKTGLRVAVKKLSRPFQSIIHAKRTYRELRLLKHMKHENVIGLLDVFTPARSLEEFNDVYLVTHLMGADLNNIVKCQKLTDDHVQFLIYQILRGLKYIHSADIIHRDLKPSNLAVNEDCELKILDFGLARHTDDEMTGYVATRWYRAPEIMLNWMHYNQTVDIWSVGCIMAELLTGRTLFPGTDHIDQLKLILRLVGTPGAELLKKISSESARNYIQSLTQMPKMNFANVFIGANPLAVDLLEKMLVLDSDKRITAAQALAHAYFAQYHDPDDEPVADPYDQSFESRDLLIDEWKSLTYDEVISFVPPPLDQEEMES
method: Inhibition of human p38alpha using FAM-p38tide as substrate by IMAP assay
property measured: IC50
In your response, the unit should come after the numeric value.

Recorded IC50 for CC(=O)N[C@H]1CC[C@H](Nc2nccc(-c3c(-c4ccccc4)noc3C)n2)CC1 , please? 26 nM

* * *

Test system: Brugia malayi
method: Inhibition of recombinant Brugia malayi MPK1a at 1 uM using FAM-p38tide as substrate by IMAP assay relative to control
Respond with yes (1) for inhibition values of 7% and above, no (0) for values below.

Does inhibition meet or surpass 7% for Cc1onc(-c2ccccc2)c1-c1ccnc(N[C@H]2CC[C@@H](NC(=O)OC(C)(C)C)CC2)n1 ? yes (1)

Also Cc1onc(-c2ccccc2)c1-c1ccnc(N[C@@H]2CCNC2)n1 , if possible. yes (1)

Also CC(=O)N1CC[C@@H](Nc2nccc(-c3c(-c4ccccc4)noc3C)n2)C1 , if possible. yes (1)

Also Cc1onc(-c2ccccc2)c1-c1ccnc(NC2CCN(C(=O)OC(C)(C)C)CC2)n1 , if possible. no (0)

Also Cc1onc(-c2ccccc2)c1-c1ccnc(NC2CCCN(C(=O)OC(C)(C)C)C2)n1 (racemic) , if possible. yes (1)

Also Cc1onc(-c2ccccc2)c1-c1ccnc(N[C@@H]2CCN(S(C)(=O)=O)C2)n1 , if possible. yes (1)

Also Cc1onc(-c2ccccc2)c1-c1ccnc(NCCNC(=O)OC(C)(C)C)n1 , if possible. no (0)

Also Cc1onc(-c2ccccc2)c1-c1ccnc(NCCCNC(=O)OC(C)(C)C)n1 , if possible. yes (1)

Also CC(=O)N1CC[C@@H](Nc2nccc(-c3c(-c4cccnc4)noc3C)n2)C1 , if possible. no (0)

* * *

Tested on: Brugia malayi
method: Inhibition of recombinant Brugia malayi MPK1a at 1 uM using FAM-p38tide as substrate by IMAP assay relative to control
Respond with rule met for inhibition values of 30% and above, rule not met for values below.

Does inhibition meet or surpass 30% for Cc1onc(-c2ccccc2)c1-c1ccnc(N[C@H]2CC[C@H](NC(=O)OC(C)(C)C)CC2)n1 ? rule met

Also Cc1onc(-c2ccccc2)c1-c1ccnc(N[C@@H]2CCN(C(=O)OC(C)(C)C)C2)n1 , if possible. rule met

Also CC(=O)N1CC[C@@H](Nc2nccc(-c3c(-c4ccccc4)noc3C(F)(F)F)n2)C1 , if possible. rule not met

Also Cc1onc(-c2ccccc2)c1-c1ccnc(N[C@H]2CCN(C(=O)OC(C)(C)C)C2)n1 , if possible. rule not met

Also CC(=O)N[C@H]1CC[C@H](Nc2nccc(-c3c(-c4ccccc4)noc3C)n2)CC1 , if possible. rule met

Also Cc1onc(-c2ccccc2)c1-c1ccnc(N[C@@H]2CCN(C(=O)c3ccccc3)C2)n1 , if possible. rule not met

Also Cc1onc(-c2ccccc2)c1-c1ccnc(N[C@@H]2CCN(S(=O)(=O)c3ccccc3)C2)n1 , if possible. rule met

Also CC(=O)N[C@H]1CC[C@@H](Nc2nccc(-c3c(-c4ccccc4)noc3C)n2)CC1 , if possible. rule met

* * *

tested target: CYP2C19 (Homo sapiens)
Sequence (P33261 whole entry): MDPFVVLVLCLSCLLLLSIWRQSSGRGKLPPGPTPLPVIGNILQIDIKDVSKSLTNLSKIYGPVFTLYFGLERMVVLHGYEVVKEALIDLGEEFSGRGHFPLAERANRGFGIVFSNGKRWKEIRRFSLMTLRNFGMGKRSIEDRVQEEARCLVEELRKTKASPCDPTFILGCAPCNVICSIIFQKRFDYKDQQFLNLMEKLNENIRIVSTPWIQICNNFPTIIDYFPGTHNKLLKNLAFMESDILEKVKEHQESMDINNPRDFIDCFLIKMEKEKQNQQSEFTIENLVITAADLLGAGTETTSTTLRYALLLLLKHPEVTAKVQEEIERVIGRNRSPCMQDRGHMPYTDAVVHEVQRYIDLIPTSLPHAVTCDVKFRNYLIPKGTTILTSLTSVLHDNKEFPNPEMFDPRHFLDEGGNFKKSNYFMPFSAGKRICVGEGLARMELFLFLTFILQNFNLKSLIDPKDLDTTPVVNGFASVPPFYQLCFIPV
method: Inhibition of CYP2C19 (unknown origin) at 5 uM relative to control
Type: ADME
property measured: inhibition at 5 µM (%)
The response must be a number in % with no trailing unit.

Recorded inhibition at 5 µM for CC(=O)N[C@H]1CC[C@H](Nc2nccc(-c3c(-c4ccccc4)noc3C)n2)CC1 , please? 76
